# ASSAY SUMMARY: Plasma PK and tissue distribution after oral dosing of INTERMEDIATE C4 (3 mg/kg)
# Type: in vivo
# TEST PARAMETERS: plasma, PO 3 mg/kg INTERMEDIATE C4, male Wistar Han rat, mean
MEASURE NAME: AUC(0-inf) (ng·h/mL)
Write the answer as a number in ng·h/mL, unit excluded.

Quick one: AUC(0-inf) of CC(C)CN(c1ccc([C@H](C)CC(=O)O)cc1Nc1cnc(Cl)cn1)C1CCOCC1 [intermediate C4] ?
1030

----------
# ASSAY SUMMARY: Plasma PK and tissue distribution after oral dosing of prodrug EXAMPLE 7 (5 mg/kg)
# Type: in vivo
# TEST PARAMETERS: spleen, PO 5 mg/kg EXAMPLE 7 (prodrug), male Wistar Han rat; analyte as labelled; read-out: AUClast (spleen)
MEASURE NAME: AUC(0-t) (ng·h/mL)
Report the figure in ng·h/mL without appending any unit label.

// query AUC(0-t) value for entry CC(C)CN(c1ccc([C@H](C)CC(=O)O)cc1Nc1cnc(Cl)cn1)C1CCOCC1 [intermediate C4]
353

----------
# ASSAY SUMMARY: Plasma PK and tissue distribution after oral dosing of INTERMEDIATE C4 (3 mg/kg)
# Type: in vivo
# TEST PARAMETERS: male, Wistar Han, rat, lymph node / plasma, po, 3 mg/kg, PO 3 mg/kg INTERMEDIATE C4, male Wistar Han rat, 8 hr; read-out: Lymph node to plasma ratio individual
MEASURE NAME: Kp at 8 h
Output: the number by itself.

Consider the compound CC(C)CN(c1ccc([C@H](C)CC(=O)O)cc1Nc1cnc(Cl)cn1)C1CCOCC1 [intermediate C4] and give its measured Kp at 8 h.
0.353

----------
# ASSAY SUMMARY: Plasma PK and tissue distribution after oral dosing of INTERMEDIATE C4 (3 mg/kg)
# Assay type: in vivo
# TEST PARAMETERS: male, Wistar Han, rat, lymph node / plasma, po, 3 mg/kg, PO 3 mg/kg INTERMEDIATE C4, male Wistar Han rat, 4 hr; read-out: Lymph node to plasma ratio Mean
MEASURE NAME: Kp at 4 h

Name the recorded Kp at 4 h for CC(C)CN(c1ccc([C@H](C)CC(=O)O)cc1Nc1cnc(Cl)cn1)C1CCOCC1 [intermediate C4] .
0.716

----------
# ASSAY SUMMARY: Plasma PK and tissue distribution after oral dosing of INTERMEDIATE C4 (3 mg/kg)
# Assay type: in vivo
# TEST PARAMETERS: male, Wistar Han, rat, liver, po, 3 mg/kg, PO 3 mg/kg INTERMEDIATE C4, male Wistar Han rat, 4 hr; read-out: liver Concentration individual
# Method: Tissue Distribution of drug intermediate C4 from oral dosing of C4 and of intermediate C4 from oral dosing of example 7 in rats • Wistar Han rat, 185-197 g, male, N=8, purchased from Beijing Vital River Co. LTD. Qualification No.: SCXK(J) 2016-0011 11400700240027. Fasted overnight and fed 4 hr post dose. PO: 3 mg/kg (10 mL/kg) via oral gavage(N=8). Sampling at 1, 4, 8 and 24 hr , 4 time points, terminal bleeding for plasma, liver, lymph nodes and spleen collected at each time point.
MEASURE NAME: concentration at 4 h (ng/g)
Form entry: value (ng/g) — number only.

Sample CC(C)CN(c1ccc([C@H](C)CC(=O)O)cc1Nc1cnc(Cl)cn1)C1CCOCC1 [intermediate C4] — what was its concentration at 4 h?
868
